Origin of values: patent US20140112886A1

# Lookup of reported CC50 at 72 h keyed by entry
# Procedure details: Cytotoxicity evaluation, CellTiter-Blue Cell Viability Assay
# Setup conditions: human, Zluc cells (HCV replicon cells)

Molecule	CC50 at 72 h
CCOc1nc(N)nc2c1ncn2[C@@H]1O[C@@H]2COP(=O)(NCCNP3(=O)OC[C@H]4O[C@@H](n5cnc6c(OCC)nc(N)nc65)[C@](C)(F)[C@@H]4O3)O[C@H]2[C@@]1(C)F (mixture of isomers)	> 50 µM

### Prompt GET /values?readout=CC50 at 72 h&item= CCOc1nc(N)nc2c1ncn2[C@@H]1O[C@@H]2COP(=O)(NCCCCCCNP3(=O)OC[C@H]4O[C@@H](n5cnc6c(OCC)nc(N)nc65)[C@](C)(F)[C@@H]4O3)O[C@H]2[C@@]1(C)F (some centres unmarked)
### Response > 50 µM

###

# Procedure details: in vitro
# Setup conditions: human
Reported property: CC50

Compound	Endpoint result
COc1nc(N)nc2c1ncn2[C@@H]1O[C@H](COP(=O)(NCCNP(=O)(OC[C@H]2O[C@@H](n3cnc4c(OC)nc(N)nc43)[C@](C)(O)[C@@H]2O)Oc2ccccc2)Oc2ccccc2)[C@@H](O)[C@@]1(C)O (some centres unmarked) [Compound 6]	> 50 µM

### Prompt Look up CC50: CCOc1nc(N)nc2c1ncn2[C@@H]1O[C@H](COP(=O)(Oc2ccccc2)N2CCN(P(=O)(OC[C@H]3O[C@@H](n4cnc5c(OC)nc(N)nc54)[C@](C)(O)[C@@H]3O)Oc3ccccc3)CC2)[C@@H](O)[C@@]1(C)F (some centres unmarked) [Compound 4]
### Response > 50 µM
